Tested on: Mycobacterium kansasii
Assay: Antimycobacterial activity against Mycobacterium kansasii 6509/96 after 14 days
Format: functional
Conditions: 6509/96, 336 h
The entries below come with measured MIC values attached.
Numbers only here, please. The scale is µM.

In the examples that follow, each entry is paired with its recorded MIC.
O=C(Nc1ccc([N+](=O)[O-])cc1)c1cccc([N+](=O)[O-])c1O = 125
O=C(Nc1cccc(I)c1)c1cccc([N+](=O)[O-])c1O = 125
O=C(Nc1cc(C(F)(F)F)cc(C(F)(F)F)c1)c1cccc([N+](=O)[O-])c1O = 32
O=C(Nc1ccc([N+](=O)[O-])cc1)c1ccc([N+](=O)[O-])cc1O = 32
O=C(Nc1ccc(Cl)c(Cl)c1)c1cc([N+](=O)[O-])ccc1O = 32

Which measured MIC value corresponds to O=C(Nc1ccc(Cl)c(Cl)c1)c1ccc([N+](=O)[O-])cc1O ? 16

Which measured MIC value corresponds to O=C(Nc1cccc(I)c1)c1cc([N+](=O)[O-])ccc1O ? 62.5

Which measured MIC value corresponds to O=C(Nc1ccc([N+](=O)[O-])cc1)c1cc([N+](=O)[O-])ccc1O ? 125

Which measured MIC value corresponds to O=C(Nc1ccc([N+](=O)[O-])c(C(F)(F)F)c1)c1ccc([N+](=O)[O-])cc1O ? 32

Which measured MIC value corresponds to O=C(Nc1ccc(C(F)(F)F)cc1)c1ccc([N+](=O)[O-])cc1O ? 8

Which measured MIC value corresponds to NNC(=O)c1ccncc1 [ISONIAZID] ? 8

Which measured MIC value corresponds to O=C(Nc1ccc(Cl)c(Cl)c1)c1cccc([N+](=O)[O-])c1O ? 62.5

Which measured MIC value corresponds to O=C(Nc1cccc([N+](=O)[O-])c1)c1cccc([N+](=O)[O-])c1O ? 250

====

System: Trichophyton mentagrophytes
Test: Antifungal activity against Trichophyton mentagrophytes 445 after 48 hrs by microdilution broth method
Assay type: functional
Details: Trichophyton mentagrophytes, 445, 48 h
observed.property: MIC

In the examples that follow, each entry is paired with its recorded MIC.
O=C(Nc1ccc(C(F)(F)F)cc1)c1cc([N+](=O)[O-])ccc1O = 500 µM
O=C(Nc1cccc(F)c1)c1cc([N+](=O)[O-])ccc1O = 500 µM
OC(Cn1cncn1)(Cn1cncn1)c1ccc(F)cc1F = 125 µM
O=C(Nc1ccc(C(F)(F)F)cc1)c1ccc([N+](=O)[O-])cc1O = 125 µM
O=C(Nc1ccc(Cl)c(Cl)c1)c1cc([N+](=O)[O-])ccc1O = 250 µM

# get_value(readout= MIC, system= Trichophyton mentagrophytes) for O=C(Nc1cc(C(F)(F)F)cc(C(F)(F)F)c1)c1ccc([N+](=O)[O-])cc1O > 500 µM

# get_value(readout= MIC, system= Trichophyton mentagrophytes) for O=C(Nc1cccc(Br)c1)c1cc([N+](=O)[O-])ccc1O 250 µM

# get_value(readout= MIC, system= Trichophyton mentagrophytes) for O=C(Nc1cccc(Cl)c1)c1ccc([N+](=O)[O-])cc1O 62.5 µM

# get_value(readout= MIC, system= Trichophyton mentagrophytes) for O=C(Nc1cccc(F)c1)c1ccc([N+](=O)[O-])cc1O 500 µM

# get_value(readout= MIC, system= Trichophyton mentagrophytes) for O=C(Nc1ccc([N+](=O)[O-])c(C(F)(F)F)c1)c1cc([N+](=O)[O-])ccc1O > 500 µM

====

The entries below come with measured MIC values attached.
Test system: Klebsiella pneumoniae
Test: Antibacterial activity against Klebsiella pneumoniae D 11750/08 after 24 hrs by microdilution broth method
Type: functional
Conditions: D 11750/08, 24 h

O=C(Nc1cc(C(F)(F)F)cc(C(F)(F)F)c1)c1ccc([N+](=O)[O-])cc1O = > 500 µM

Which measured MIC value corresponds to O=C(Nc1ccc([N+](=O)[O-])c(C(F)(F)F)c1)c1ccc([N+](=O)[O-])cc1O ? > 500 µM

Which measured MIC value corresponds to O=C(Nc1cccc(I)c1)c1ccc([N+](=O)[O-])cc1O ? > 500 µM

Which measured MIC value corresponds to O=C(Nc1cc(C(F)(F)F)cc(C(F)(F)F)c1)c1cc([N+](=O)[O-])ccc1O ? > 500 µM

Which measured MIC value corresponds to O=C(Nc1ccc(Cl)c(Cl)c1)c1cc([N+](=O)[O-])ccc1O ? > 500 µM

Which measured MIC value corresponds to O=C(Nc1cccc(Cl)c1)c1cc([N+](=O)[O-])ccc1O ? > 500 µM

Which measured MIC value corresponds to O=C(Nc1cccc(Cl)c1)c1ccc([N+](=O)[O-])cc1O ? > 500 µM

Which measured MIC value corresponds to O=C(Nc1cccc(C(F)(F)F)c1)c1cc([N+](=O)[O-])ccc1O ? > 500 µM

Which measured MIC value corresponds to O=C(Nc1cccc(Br)c1)c1ccc([N+](=O)[O-])cc1O ? 500 µM

Which measured MIC value corresponds to O=C(Nc1cccc(C(F)(F)F)c1)c1ccc([N+](=O)[O-])cc1O ? 500 µM

====

Test system: Lichtheimia corymbifera
Assay: Antifungal activity against Absidia corymbifera 272 after 48 hrs by microdilution broth method
Type: functional
Conditions: Lichtheimia corymbifera, 272, 48 h
The entries below come with measured MIC values attached.
Numbers only here, please. The scale is µM.

In the examples that follow, each entry is paired with its recorded MIC.
O=C(Nc1ccc([N+](=O)[O-])c(C(F)(F)F)c1)c1ccc([N+](=O)[O-])cc1O = 125
O=C(Nc1cccc(Br)c1)c1ccc([N+](=O)[O-])cc1O = 500

From here, focus on the item given below.
Which measured MIC value corresponds to O=C(Nc1ccc(C(F)(F)F)cc1)c1ccc([N+](=O)[O-])cc1O ? 62.5

====

The entries below come with measured MIC values attached.
Tested on: Staphylococcus aureus
Experiment: Antibacterial activity against methicillin-resistant Staphylococcus aureus H 5996/08 after 48 hrs by microdilution broth method
Assay type: functional
Details: H 5996/08, 48 h

In the examples that follow, each entry is paired with its recorded MIC.
O=C(Nc1cccc(F)c1)c1cc([N+](=O)[O-])ccc1O = 125 µM
O=C(Nc1cccc(C(F)(F)F)c1)c1cc([N+](=O)[O-])ccc1O = 31.2 µM
O=C(Nc1ccc(C(F)(F)F)cc1)c1cc([N+](=O)[O-])ccc1O = 31.2 µM

Which measured MIC value corresponds to O=C(Nc1ccc(Cl)c(Cl)c1)c1ccc([N+](=O)[O-])cc1O ? 1.95 µM

Which measured MIC value corresponds to O=C(Nc1cccc(I)c1)c1cc([N+](=O)[O-])ccc1O ? 31.2 µM

Which measured MIC value corresponds to O=C(Nc1ccc([N+](=O)[O-])c(C(F)(F)F)c1)c1cc([N+](=O)[O-])ccc1O ? 31.2 µM

====

System: Staphylococcus aureus
Test: Antibacterial activity against methicillin-resistant Staphylococcus aureus H 5996/08 after 48 hrs by microdilution broth method
Assay type: functional
Conditions: H 5996/08, 48 h
The entries below come with measured log10 MIC values attached.
// stored as log10 of MIC expressed in µM

In the examples that follow, each entry is paired with its recorded log10 MIC.
O=C(Nc1cccc([N+](=O)[O-])c1)c1ccc([N+](=O)[O-])cc1O = 2.10
O=C(Nc1cccc(Br)c1)c1ccc([N+](=O)[O-])cc1O = 0.59
O=C(Nc1ccc([N+](=O)[O-])cc1)c1cc([N+](=O)[O-])ccc1O = 2.40
O=C(Nc1cccc(Cl)c1)c1cc([N+](=O)[O-])ccc1O = 1.80
O=C(Nc1cccc(Br)c1)c1cc([N+](=O)[O-])ccc1O = 1.80

Which measured log10 MIC value corresponds to O=C(Nc1cccc([N+](=O)[O-])c1)c1cc([N+](=O)[O-])ccc1O ? 2.70

====

System: Lichtheimia corymbifera
Test: Antifungal activity against Absidia corymbifera 272 after 24 hrs by microdilution broth method
Format: functional
Settings: Lichtheimia corymbifera, 272, 24 h
The entries below come with measured MIC values attached.
Numbers only here, please. The scale is µM.

In the examples that follow, each entry is paired with its recorded MIC.
O=C(Nc1ccc(C(F)(F)F)cc1)c1ccc([N+](=O)[O-])cc1O = 31.2
O=C(Nc1cccc(Br)c1)c1cc([N+](=O)[O-])ccc1O = 500
O=C(Nc1cccc(F)c1)c1ccc([N+](=O)[O-])cc1O = 250
O=C(Nc1cccc(I)c1)c1cc([N+](=O)[O-])ccc1O = 500
O=C(Nc1ccc(C(F)(F)F)cc1)c1cc([N+](=O)[O-])ccc1O = 500
O=C(Nc1cccc(C(F)(F)F)c1)c1ccc([N+](=O)[O-])cc1O = 500

Which measured MIC value corresponds to O=C(Nc1cccc(C(F)(F)F)c1)c1cc([N+](=O)[O-])ccc1O ? 500

Which measured MIC value corresponds to O=C(Nc1cccc(Br)c1)c1ccc([N+](=O)[O-])cc1O ? 250
